Tested on: A498 renal
Assay: NCI tumour cell line growth inhibition, 48 h; in the data active means GI50 below about 0.43 µM; inactive means the rest
Labels: active, inactive

[
  {
    "compound": "O=C(OCc1ncc(-c2ccc(C(F)(F)F)cc2)c(NC2CCCCCC2)n1)c1c(F)c(F)c(F)c(F)c1F",
    "target-or-test-system": "A498 renal",
    "class": "inactive"
  },
  {
    "compound": "Cc1cc(N2CCSCC2)nc(NC2CCCC(Nc3ccnc4cc(Cl)ccc34)C2)n1 (stereo unspecified)",
    "target-or-test-system": "A498 renal",
    "class": "inactive"
  },
  {
    "compound": "O=C1/C(=C\\c2ccccn2)c2ccccc2N1c1c(Cl)cccc1Cl",
    "target-or-test-system": "A498 renal",
    "class": "inactive"
  },
  {
    "compound": "O=Cc1ccc(-c2ccc(-c3nc4ccccc4o3)cc2)o1",
    "target-or-test-system": "A498 renal",
    "class": "inactive"
  },
  {
    "compound": "COc1ccccc1CNCCCN1C(=O)c2ccc3c4c(ccc(c24)C1=O)C(=O)N(CCCCNCCCN)C3=O",
    "target-or-test-system": "A498 renal",
    "class": "inactive"
  },
  {
    "compound": "O=C(Nc1ccc(-n2ccc3c(NC(=O)c4ccccc4)ncnc32)cc1)Nc1cccc(Cl)c1Cl",
    "target-or-test-system": "A498 renal",
    "class": "inactive"
  },
  {
    "compound": "CCC(CNc1cc(OC)cc2cccnc12)NC1CCCCC1 (stereo unspecified)",
    "target-or-test-system": "A498 renal",
    "class": "inactive"
  },
  {
    "compound": "COc1ccc(C(=O)c2cc3c(N)c(C(=O)Nc4ccc(C)cc4)sc3nc2C)cc1",
    "target-or-test-system": "A498 renal",
    "class": "inactive"
  },
  {
    "compound": "NC(=O)c1cccc(Nc2nccc(Nc3cccc4[nH]ncc34)n2)c1",
    "target-or-test-system": "A498 renal",
    "class": "inactive"
  },
  {
    "compound": "CC(C)(C)[Si](C)(C)OC1[C@@H](O[Si](C)(C)C(C)(C)C)[C@@H](CNC(=O)NC(=O)CCl)O[C@H]1n1cnc2c(NC(=O)Nc3ccccc3)ncnc21 (stereo partly specified)",
    "target-or-test-system": "A498 renal",
    "class": "inactive"
  },
  {
    "compound": "CN1C(=O)N[C@H]2[C@@H]3NC(=O)c4ccc(Br)n4[C@@H]3C[C@]21O",
    "target-or-test-system": "A498 renal",
    "class": "active"
  }
]
